pIC50: −log10 of the molar value.
Let's go through some pIC50 measurements on Phospholipase A2, major isoenzyme (Sus scrofa, UniProt P00592) together.
Sequence (P00592 whole entry): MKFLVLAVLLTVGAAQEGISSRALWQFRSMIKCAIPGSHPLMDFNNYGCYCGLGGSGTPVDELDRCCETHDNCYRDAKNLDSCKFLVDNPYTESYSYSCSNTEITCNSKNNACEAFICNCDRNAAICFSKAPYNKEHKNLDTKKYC
PROPERTY_MEASURED: pIC50

> print(dat)
                            chemical.smiles                           target.of.assay  value.reported
1  CCCCCCCCCCCCCCN1CCN(C(=O)c2ccc(-c3nc(=O)o[nH]3)cc2)CC1  Phospholipase A2, major isoenzyme (Sus scrofa, UniProt P00592)          < 4.00
2  CCCCCCCCCCCCCCN1CCN(C(=O)c2ccc(CCCc3noc(=O)[nH]3)cc2)CC1  Phospholipase A2, major isoenzyme (Sus scrofa, UniProt P00592)          < 4.00
3  CCCCCCCCCCCCCCCCCCCCN1CCN(C(=O)c2ccc(Cc3noc(=O)[nH]3)cc2)CC1  Phospholipase A2, major isoenzyme (Sus scrofa, UniProt P00592)          < 4.00
4  CCCCCCCCCCCCCCN1CCN(c2ccc(Cc3nc(=O)o[nH]3)cc2)CC1  Phospholipase A2, major isoenzyme (Sus scrofa, UniProt P00592)          < 4.00
5  CCCCCCCCCCCCCCCCCCN1CCN(Cc2ccc(-c3noc(=O)[nH]3)cc2)CC1  Phospholipase A2, major isoenzyme (Sus scrofa, UniProt P00592)          < 4.00
6  CCCCCCCCCCCCCCCCN1CCN(C(=O)c2ccc(Cc3nc(=O)o[nH]3)cc2)CC1  Phospholipase A2, major isoenzyme (Sus scrofa, UniProt P00592)          < 4.00
7  CCCCCCCCCCCCCCCCN1CCN(C(=O)c2ccc(-c3nc(=O)o[nH]3)cc2)CC1  Phospholipase A2, major isoenzyme (Sus scrofa, UniProt P00592)          < 4.00

---

Experiment: Lipophilicity, log P of the compound
Type: physicochemical
Details: octanol/water; read-out: LogP
Please note: logP exactly at 7 is class 0. Only values below 7 get class 1.

> print(dat)
                             chemical.smiles  discrete.label
 1  CCCCCCCCCCCCCCCCCCN1CCN(c2ccc(Cc3noc(=O)[nH]3)cc2)CC1         class 0
 2  CCCCCCCCCCCCCCN1CCN(Cc2ccc(-c3nc(=O)o[nH]3)cc2)CC1         class 1
 3  CCCCCCCCCCCCCCN1CCN(C(=O)c2ccc(CCc3nc(=O)o[nH]3)cc2)CC1         class 1
 4  CCCCCCCCCCCCCCN1CCN(c2ccc(Cc3nc(=O)o[nH]3)cc2)CC1         class 1
 5  CCCCCCCCCCCCCCCCCCN1CCN(C(=O)c2ccc(-c3noc(=O)[nH]3)cc2)CC1         class 0
 6  CCCCCCCCCCCCCCCCN1CCN(Cc2ccc(-c3noc(=O)[nH]3)cc2)CC1         class 1
 7  CCCCCCCCCCCCCCCCCCN1CCN(Cc2ccc(Cc3nc(=O)o[nH]3)cc2)CC1         class 0
 8  CCCCCCCCCCCCCCCCCCCCN1CCN(C(=O)c2ccc(Cc3noc(=O)[nH]3)cc2)CC1         class 0
 9  CCCCCCCCCCCCCCN1CCN(C(=O)c2ccc(-c3nc(=O)o[nH]3)cc2)CC1         class 1
10  CCCCCCCCCCCCCCN1CCN(C(=O)c2ccc(Cc3noc(=O)[nH]3)cc2)CC1         class 1
11  CCCCCCCCCCCCCCCCCCN1CCN(Cc2ccc(-c3noc(=O)[nH]3)cc2)CC1         class 0
12  CCCCCCCCCCCCCCCCN1CCN(C(=O)c2ccc(-c3nc(=O)o[nH]3)cc2)CC1         class 1
13  CCCCCCCCCCCCCCCCN1CCN(Cc2ccc(Cc3noc(=O)[nH]3)cc2)CC1         class 1
14  CCCCCCCCCCCCCCN1CCN(Cc2ccc(Cc3noc(=O)[nH]3)cc2)CC1         class 1
15  CCCCCCCCCCCCCCCCCCN1CCN(C(=O)c2ccc(Cc3noc(=O)[nH]3)cc2)CC1         class 0

---

Biological target: Phospholipase A2, membrane associated (Homo sapiens, UniProt P14555)
Sequence (P14555 whole entry): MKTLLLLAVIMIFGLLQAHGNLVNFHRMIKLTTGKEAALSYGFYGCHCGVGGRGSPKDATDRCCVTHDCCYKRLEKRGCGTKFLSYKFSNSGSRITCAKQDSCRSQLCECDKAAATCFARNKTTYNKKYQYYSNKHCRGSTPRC
Assay: Inhibition of human recombinant PLA2 by fluorometric assay
Binary call on IC50 with cut-off 4 µM: strictly below means Fulfilled, and equality or higher means Not fulfilled.

> print(dat)
                            chemical.smiles  discrete.label
1  CCCCCCCCCCCCCCCCN1CCN(c2ccc(Cc3noc(=O)[nH]3)cc2)CC1       Fulfilled
2  CCCCCCCCCCCCCCN1CCN(C(=O)c2ccc(CCc3nc(=O)o[nH]3)cc2)CC1   Not fulfilled
3  CCCCCCCCCCCCCCN1CCN(c2ccc(Cc3nc(=O)o[nH]3)cc2)CC1   Not fulfilled
4  CCCCCCCCCCCCCCCCCCN1CCN(C(=O)c2ccc(Cc3noc(=O)[nH]3)cc2)CC1       Fulfilled
5  CCCCCCCCCCCCCCCCCCCCCCN1CCN(C(=O)c2ccc(Cc3noc(=O)[nH]3)cc2)CC1       Fulfilled
6  CCCCCCCCCCCCCCN1CCN(Cc2ccc(-c3nc(=O)o[nH]3)cc2)CC1   Not fulfilled
7  CCCCCCCCCCCCCCN1CCN(C(=O)c2ccc(Cc3noc(=O)[nH]3)cc2)CC1   Not fulfilled
8  CCCCCCCCCCCCCCCCN1CCN(C(=O)c2ccc(-c3nc(=O)o[nH]3)cc2)CC1   Not fulfilled

---

Molecular target: Phospholipase A2, membrane associated (Homo sapiens, UniProt P14555)
Test: Inhibition of human recombinant PLA2 by fluorometric assay
PROPERTY_MEASURED: IC50

> print(dat)
                            chemical.smiles                           target.of.assay  property.measured  value.reported
1  CCCCCCCCCCCCCCN1CCN(Cc2ccc(Cc3noc(=O)[nH]3)cc2)CC1  Phospholipase A2, membrane associated (Homo sapiens, UniProt P14555)               IC50         > 10 µM
2  CCCCCCCCCCCCCCN1CCN(C(=O)c2ccc(-c3nc(=O)o[nH]3)cc2)CC1  Phospholipase A2, membrane associated (Homo sapiens, UniProt P14555)               IC50        > 100 µM
3  CCCCCCCCCCCCCCCCN1CCN(Cc2ccc(-c3noc(=O)[nH]3)cc2)CC1  Phospholipase A2, membrane associated (Homo sapiens, UniProt P14555)               IC50        > 100 µM

---

Assay: Lipophilicity, log P of the compound
Type: physicochemical
Conditions: octanol/water; read-out: LogP
Known logP of a selection of compounds
PROPERTY_MEASURED: logP

> print(dat)
                            chemical.smiles  value.reported
1  CCCCCCCCCCCCCCN1CCN(C(=O)c2ccc(CCCc3noc(=O)[nH]3)cc2)CC1            6.81
2  CCCCCCCCCCCCCCCCN1CCN(c2ccc(Cc3noc(=O)[nH]3)cc2)CC1            6.98
3  CCCCCCCCCCCCCCCCN1CCN(C(=O)c2ccc(Cc3nc(=O)o[nH]3)cc2)CC1            6.81
